- Tested on: BT182
- experiment: Patient-derived GBM line inhibition
- Format: cell-based
- details: read-out: TG02 IC50
- Method: The relationship between TG02 antitumor activity and MYC expression was tested in a panel of patient-derived GBM cell lines (PDCLs). TG02 inhibited six out of twelve PDCLs at an IC50 of less than 0.2 μM.
measured quantity: IC50 (nM)

[[record]]
compound = "CN1C/C=C/CCOc2cccc(c2)-c2ccnc(n2)Nc2cccc(c2)C1 [TG02]"
scale_unit = "nM"
number = 416


---

- System: BT187
- experiment: Patient-derived GBM line inhibition
- Format: cell-based
- details: read-out: TG02 IC50
measured quantity: IC50 (nM)

[[record]]
smiles_record = "CN1C/C=C/CCOc2cccc(c2)-c2ccnc(n2)Nc2cccc(c2)C1"
scale_unit = "nM"
number = 176


---

- Tested on: BT164
- experiment: Patient-derived GBM line inhibition
- Format: cell-based
- details: read-out: TG02 IC50
measured quantity: IC50 (nM)

[[record]]
smiles_record = "CN1C/C=C/CCOc2cccc(c2)-c2ccnc(n2)Nc2cccc(c2)C1"
measured_quantity = "IC50"
number = 178

